Origin of measurements: patent EP1935887A1

Target: CLONED HUMAN ALPHA-1A ADRENERGIC RECEPTORS (α1a) (Homo sapiens, UniProt P35348)
Construct: expressed in transfected cells; host or cells: CHO cells, G418-resistant clone #7, vector pcDNA3; membranes
Sequence (P35348 1-466): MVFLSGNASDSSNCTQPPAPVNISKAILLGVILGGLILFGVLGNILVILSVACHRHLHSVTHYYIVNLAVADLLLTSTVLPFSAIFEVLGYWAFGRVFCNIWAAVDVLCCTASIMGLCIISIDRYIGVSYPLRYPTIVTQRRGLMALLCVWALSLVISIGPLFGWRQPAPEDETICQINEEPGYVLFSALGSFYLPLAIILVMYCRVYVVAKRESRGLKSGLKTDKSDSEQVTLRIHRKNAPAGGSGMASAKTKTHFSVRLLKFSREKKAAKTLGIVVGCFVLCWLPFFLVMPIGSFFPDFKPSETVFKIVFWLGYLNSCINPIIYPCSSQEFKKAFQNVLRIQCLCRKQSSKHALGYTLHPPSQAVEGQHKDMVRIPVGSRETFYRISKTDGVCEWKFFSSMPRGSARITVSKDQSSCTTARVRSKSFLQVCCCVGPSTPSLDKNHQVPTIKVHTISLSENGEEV
Test: [3H]Prazosin binding to cloned human alpha-1A adrenergic receptors expressed in CHO cells
Conditions: human alpha-1 receptor; read-out: halpha1Ki (nM) h=human
MEASURED PARAMETER: Ki (nM)
Answers are plain numbers, in nM.

IN: // returns reported Ki for input CC1CCCN(C(=O)CCCN2CCN(c3csc4cc(F)ccc34)CC2)C1 (stereo not shown) [compound 826855]
OUT: 0.689

====

molecular target: Cloned Human Dopamine D3 Receptors (Homo sapiens); construct: expressed in transfected cells; membrane homogenate; experiment: [N-Methyl-3H]Spiroperidol binding to cloned human dopamine D3 receptors; conditions: Table 2; unit inferred; read-out: d3Ki
Sequence (P35462 whole entry): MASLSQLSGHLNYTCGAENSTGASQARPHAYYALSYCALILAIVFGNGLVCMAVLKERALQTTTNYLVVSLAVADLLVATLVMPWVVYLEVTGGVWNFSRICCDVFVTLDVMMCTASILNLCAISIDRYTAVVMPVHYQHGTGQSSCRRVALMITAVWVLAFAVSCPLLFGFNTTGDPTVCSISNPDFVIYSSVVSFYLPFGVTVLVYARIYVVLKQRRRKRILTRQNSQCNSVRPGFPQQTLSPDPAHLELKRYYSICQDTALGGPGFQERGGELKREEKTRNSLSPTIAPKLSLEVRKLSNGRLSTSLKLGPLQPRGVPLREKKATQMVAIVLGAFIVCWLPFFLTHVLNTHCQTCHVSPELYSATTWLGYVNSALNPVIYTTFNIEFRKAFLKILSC
Would you mind telling me the reported pKi of each entry?
Answers are plain numbers, as −log10 of the molar value.

# map each molecule to its pKi
1. CCN(C(=O)CCCCN1CCN(c2csc3cc(F)ccc23)CC1)c1c(C)cccc1O [compound 822132]
2. CC[C@H]1CC[C@H](NC(=O)[C@@H]2C[C@H]2CN2CCN(c3ncc(C(F)(F)F)cc3Cl)CC2)CC1 [compound 817093]
3. COc1cc(CNC(=O)[C@@H]2C[C@H]2CN2CCN(c3csc4cc(C(F)(F)F)ccc34)CC2)cc(OC)c1OC [compound 826079]
4. CC[C@H]1CC[C@H](NC(=O)[C@@H]2C[C@H]2CN2CCN(c3ccc(C)cc3C)CC2)CC1 [compound 817091]
5. O=C(CCCN1CCN(c2csc3cc(F)ccc23)CC1)Nc1cccc2ccccc12 [compound 822145]
6. CCC1CCC(NC(=O)CCCN2CCN(c3csc4cc(F)ccc34)CC2Cc2ccccc2)CC1 (stereo not drawn) [compound 827087]
7. C[C@H]1CC[C@H](NC(=O)[C@@H]2C[C@H]2CN2CCN(c3csc4cc(C(F)(F)F)ccc34)CC2)CC1 [compound 815916]
8. CN(C)c1ccc(CNC(=O)[C@]2(C)C[C@H]2CN2CCN(c3csc4cc(C(F)(F)F)ccc34)CC2)cc1 [compound 825894]

OUT:
1. 7.74
2. 8.22
3. 6.97
4. 8.40
5. 6.75
6. 6.75
7. 8.30
8. 7.23

# map each molecule to its pKi
1. O=C(Nc1cccc2c1CCCC2)[C@@H]1C[C@H]1CN1CCN(c2csc3cc(C(F)(F)F)ccc23)CC1 [compound 826078]
2. O=C(NCc1ccccc1)[C@@H]1C[C@H]1CN1CCN(c2csc3cc(C(F)(F)F)ccc23)CC1 [compound 826068]

OUT:
1. 6.79
2. 7.26

# map each molecule to its pKi
1. CCC1CCC(NC(=O)C2CC2CN2CCN(c3cc(C)ccc3C)CC2)CC1 (stereo not drawn) [817570A]
2. COCCNC(=O)C1CCC(NC(=O)C2CC2CN2CCN(c3csc4cc(C(F)(F)F)ccc34)CC2)CC1 (stereo not drawn) [compound 817049]
3. O=C(NC1CCCCC1)[C@@H]1C[C@H]1CN1CCN(c2csc3cc(C(F)(F)F)ccc23)CC1 [compound 826076]

OUT:
1. 8.30
2. 8.15
3. 7.82

# map each molecule to its pKi
1. CC[C@H]1CC[C@H](NC(=O)[C@@H]2C[C@H]2CN2CCN(c3csc4cc(C(F)(F)F)ccc34)CC2)CC1 [compound 815918]
2. CCOC(=O)[C@H]1CC[C@H](NC(=O)CCCN2CCCN(c3csc4cc(F)ccc34)CC2)CC1 [compound 826825]

OUT:
[7.82, 7.13]

# map each molecule to its pKi
1. C[C@H]1CC[C@H](NC(=O)CCCN2CCCN(c3csc4cc(F)ccc34)CC2)CC1 [compound 826824]
2. CCC1CCC(NC(=O)C2CC2CN2CCN(c3cc(Cl)ccc3OC)CC2)CC1 (stereo not drawn) [compound 817042]
3. O=C(CCCCN1CCN(c2csc3cc(F)ccc23)CC1)Nc1cccc2ccccc12 [compound 822134]

OUT:
7.47
9.21
7.09

# map each molecule to its pKi
1. CCN(C(=O)CCCN1CCCN(c2csc3cc(F)ccc23)CC1)C1CCCCC1 [compound 826829]
2. O=C(CCCN1CCN(c2csc3cc(F)ccc23)CC1Cc1ccccc1)NC1CCCC1 (stereo not drawn) [compound 827101]
3. CN(C(=O)[C@@H]1C[C@H]1CN1CCN(c2csc3cc(C(F)(F)F)ccc23)CC1)C1CCCCC1 [compound 826885]
4. CC1CCC(NC(=O)C2CC2CN2CCN(c3ccc(F)cc3)CC2)CC1 (stereo not drawn) [compound 827196]
5. C[C@H]1CC[C@H](NC(=O)[C@@H]2C[C@H]2CN2CCN(c3cccc4[nH]ccc34)CC2)CC1 [compound 817098]
6. CC[C@H]1CC[C@H](NC(=O)[C@@H]2C[C@H]2CN2CCN(c3ccccc3C#N)CC2)CC1 [compound 817044]

OUT:
1: 7.82; 2: 6.83; 3: 7.69; 4: 8.63; 5: 8.97; 6: 8.96

# map each molecule to its pKi
1. CCC1CCC(NC(=O)C2CC2CN2CCN(c3ncc(C(F)(F)F)cc3Cl)CC2)CC1 (stereo not drawn) [817480A]
2. O=C(NCCc1ccccn1)[C@@H]1C[C@H]1CN1CCN(c2csc3cc(C(F)(F)F)ccc23)CC1 [compound 826080]
3. O=C(NCc1ccc2c(c1)OCO2)[C@@H]1C[C@H]1CN1CCN(c2csc3cc(C(F)(F)F)ccc23)CC1 [compound 822204]

OUT:
[8.27, 7.83, 7.90]
